Assay: in vivo
Details: male, Hartley, guinea pig, ip, 125 mg/kg

| STRUCTURE_AS_SMILES | AUC(0-inf) / ng·h/mL |
| --- | --- |
| COc1ccc2nc3cc(Cl)ccc3c(Nc3cc(CN4CCCC4)c(O)c(CN4CCCC4)c3)c2n1 | 17400 |

###

Experiment: in vivo
Settings: male, Hartley, guinea pig, ip, 125 mg/kg

| STRUCTURE_AS_SMILES | UNIT | Cmax |
| --- | --- | --- |
| COc1ccc2nc3cc(Cl)ccc3c(Nc3cc(CN4CCCC4)c(O)c(CN4CCCC4)c3)c2n1 | ng/mL | 523 |
